System under test: MASP-2 CCP2-SP (Homo sapiens (Human), UniProt O00187)
Sequence (O00187 445-686): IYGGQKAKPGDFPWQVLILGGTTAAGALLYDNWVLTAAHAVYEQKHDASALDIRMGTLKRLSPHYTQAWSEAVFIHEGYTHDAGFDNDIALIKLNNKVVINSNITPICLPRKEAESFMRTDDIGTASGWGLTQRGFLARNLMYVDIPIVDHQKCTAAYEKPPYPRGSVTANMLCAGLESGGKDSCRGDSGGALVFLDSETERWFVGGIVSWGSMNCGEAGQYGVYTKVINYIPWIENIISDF
Sequence (O00187 364-432 partner): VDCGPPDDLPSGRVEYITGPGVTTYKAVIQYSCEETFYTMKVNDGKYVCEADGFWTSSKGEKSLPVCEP
Procedure summary: MASP-2 co-crystallization, X-ray crystallography and structure analysis (H-bonds, van der Waals contacts)
Set-up: unit not given beside the values
Experimental conditions: Table A2-13; MASP-2 TRP 655 CZ3
Counter-ions that a name gives are not always drawn.
Measured parameter: van der Waals contact distance TRP 655 atom CZ3

{"columns": ["Molecule", "Value observed"],
 "data": [
  ["C[C@H](NC(=O)[C@H](N)CCc1cc(Cl)cc(Cl)c1)C(=O)NCc1ccc(C(=N)N)cc1", 3.69],
  ["Cc1cc(Cl)cc(CNC(=O)[C@H](C)NC(=O)[C@H]2C[C@H](Cc3ccccc3)CN2)c1O", 3.76],
  ["Cc1nc(N)ccc1CNC(=O)[C@H](C)NC(=O)[C@H]1C[C@H](Cc2cccc(-c3ccccc3)c2)CN1", 3.51],
  ["Cc1nc(N)ccc1CNC(=O)[C@H](C)NC(=O)[C@H]1C[C@H](Cc2cc(-c3ccccc3)cs2)CN1 [compound 1399, Dihydrochloride]", 3.42],
  ["C[C@H](NC(=O)[C@H]1C[C@H](Cc2ccccc2)CN1)C(=O)NCc1cnc2[nH]cc(Cl)c2c1", 3.67],
  ["C[C@H](NC(=O)[C@H](N)CCc1ccccc1)C(=O)NCc1ccc(C(=N)N)cc1", 3.86],
  ["Cc1nc(N)ccc1CNC(=O)[C@H](C)NC(=O)[C@H]1C[C@H](Cc2ccc3ccccc3c2)CN1", 3.74],
  ["N=C(N)c1ccc(CNC(=O)C(CF)NC(=O)[C@H](N)CCc2ccccc2)cc1 (stereo partly drawn) [compound 1050, Dihydrochloride]", 3.81],
  ["Cc1nc(N)ccc1CNC(=O)[C@H](C)NC(=O)[C@H]1C[C@@H](c2ccccc2)CCN1C", 3.75],
  ["C[C@H](NC(=O)[C@H](N)CCc1ccccc1)C(=O)NCc1ccc(N)nc1", 3.78],
  ["Cc1nc(N)ccc1CNC(=O)[C@H](C)NC(=O)c1cc(Cc2ccccc2)n[nH]1", 3.86],
  ["Cc1nc(N)ccc1CNC(=O)[C@H](C)NC(=O)[C@H]1C[C@H](Cc2ccccc2)CN1", 3.68],
  ["C[C@H](NC(=O)[C@H](N)C1Cc2ccccc2C1)C(=O)NCc1ccc2nc(N)[nH]c2c1", 3.84],
  ["Cc1nc(N)ccc1CNC(=O)[C@H](C)NC(=O)[C@H]1C[C@H](Cc2ccccc2Br)CN1 [compound 1372, Di-trifluoroacetate salt]", 3.48],
  ["Cc1nc(N)ccc1CNC(=O)[C@H](C)NC(=O)[C@H]1C[C@@H](c2ccccc2)CCN1CCC(=O)O [compound 1411, Trifluoroacetate salt]", 3.57]
]}

---

System under test: MASP-2 CCP2-SP (Homo sapiens (Human))
Procedure summary: MASP-2 co-crystallization, X-ray crystallography and structure analysis (H-bonds, van der Waals contacts)
Experimental conditions: Table A4-1; element CA1
Measured parameter: Ligand-pharmacophore element distance, pharmacophore element CA1

{"columns": ["Compound", "Value observed"],
 "data": [
  ["C[C@H](NC(=O)[C@H](N)CCc1ccccc1)C(=O)NCc1ccc(C(=N)N)cc1 [compound 1024]", 0.4],
  ["C[C@H](NC(=O)[C@H](N)C1Cc2ccccc2C1)C(=O)NCc1ccc2c(N)nccc2c1.Cl.Cl [1088_A]", 0.4],
  ["Cc1nc(N)ccc1CNC(=O)C(C)NC(=O)C1CC(c2cccc3ccccc23)CCN1.Cl.Cl (stereo not drawn) [1297_1]", 0.39]
]}

The origin of these recorded values is patent US12195427B2.
